Target desc: T1, 4H918-bH
T1 chain: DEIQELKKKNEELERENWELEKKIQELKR
Method description: two-hybrid library CCNG1;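 further: natural log of median RNA to DNA barcode read ratio; higher means stronger binding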
Value type: interaction score

Please review the following examples before continuing.
- Binder: "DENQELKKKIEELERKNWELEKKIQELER [4H1845-bH]"
  Observed measurement: -0.512
- Binder: "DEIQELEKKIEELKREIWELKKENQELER [4H331-bH]"
  Observed measurement: -1.11
- Binder: "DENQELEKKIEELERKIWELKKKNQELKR [4H1328-bH]"
  Observed measurement: -0.116
- Binder: "DEIQELKKKNEELEREIWELKKENQELKR [4H908-bH]"
  Observed measurement: -2.03
- Binder: "DEIQELKKKIEELEREIWELKKENQELKR [4H780-bH]"
  Observed measurement: 0.556
- Binder: "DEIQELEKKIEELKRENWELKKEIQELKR [4H346-bH]"
  Observed measurement: -3.17
- Binder: "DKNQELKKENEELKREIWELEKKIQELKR [4H3782-bH]"
  Observed measurement: -0.854
- Binder: "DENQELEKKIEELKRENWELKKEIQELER [4H1369-bH]"
  Observed measurement: -1.26

I. DEIQELEKEIEELKREIWELEKKNQELKR [4H72-bH]
II. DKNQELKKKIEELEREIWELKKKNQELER [4H3855-bH]
Of I and II , whose reported interaction score is the larger number? Write the label of whichever entry you select.
I
(I: 0.163, II: -0.471)
